pIC50: −log10 of the molar value.
Here, molecules appear alongside pIC50 reported for Non-receptor tyrosine-protein kinase TYK2 (Homo sapiens) in the literature.

Field: example entries. Status: answers known.
The molecule "CN(c1ncnc2[nH]ccc12)[C@H]1CC[C@H](NC(=O)NCC#N)CC1" on Non-receptor tyrosine-protein kinase TYK2 (Homo sapiens): pIC50 was 6.38

The molecule "[2H]C1([2H])C([2H])([2H])C2(COc3ccc(F)c(-c4cn([C@H]5C[C@@H](N6CCN(C(C)=O)CC6)C5)c5ncnc(N)c45)c3)OC1([2H])C([2H])([2H])C2([2H])[2H]" on Non-receptor tyrosine-protein kinase TYK2 (Homo sapiens): pIC50 was < 5.00

Turning now to a further molecule:
The molecule "CCC(CC)n1cc(-c2nc(-c3cnn(C[C@@H](O)C(C)(C)O)c3)cn3nccc23)cn1" on Non-receptor tyrosine-protein kinase TYK2 (Homo sapiens): pIC50 was 7.00 to 8.00

* * *

Here, compounds appear alongside IC50 reported for UniProt:P29597 in the literature.

Field: example entries. Status: answers known.
Query "CN(c1ccc(O)cc1CNc1nc(-c2cc(F)c(O)cc2CC(F)(F)F)nc2[nH]nc(-c3nnc(C4CCN(C(N)=O)CC4)[nH]3)c12)S(C)(=O)=O" yields IC50 of 310 nM

Query Cc1cc(Nc2ncc(C)c(N3CC(CC#N)(N4CCCC5(C4)CC5(F)F)C3)n2)sn1 (centres unmarked) yields IC50 of < 10 nM

Query "O=C1NCCCCOCc2cc(ccc2N2CCOCC2)Nc2nccc(n2)-c2ccc1cc2OC(F)(F)F" yields IC50 of 1000 to 10000 nM

Query "CCOC(=O)Cn1cc(Nc2ncc3ccn(CC4CCCC4)c3n2)cn1" yields IC50 of < 100 nM

Query CCC(CC)n1cc(-c2nc(-c3cnn(C[C@H](O)CCO)c3)cn3nccc23)cn1 (single isomer, unassigned) yields IC50 of 10 to 100 nM

Query "Cc1nc(-c2cnc3[nH]ccc3c2N[C@@H]2CCCN(C(=O)CC#N)C2)no1" yields IC50 of 100 to 1000 nM

Turning now to a further compound:
Query "CCCN(Cc1cc(C)ccc1N(C)S(C)(=O)=O)c1nc(-c2cc(F)c(O)cc2CC)cc2[nH]ncc12" yields IC50 of 8730 nM

* * *

Here, molecules appear alongside IC50 reported for Non-receptor tyrosine-protein kinase TYK2 (Homo sapiens, UniProt P29597) in the literature.

Field: example entries. Status: answers known.
The molecule C[C@@H](O)CS(=O)(=O)N[C@H]1C[C@@H](N(C)c2ncnc3[nH]ccc23)C1 (single isomer, unassigned) on Non-receptor tyrosine-protein kinase TYK2 (Homo sapiens, UniProt P29597): IC50 was 3.42 µM

The molecule "N#CCC(=O)N1CCC[C@@H](Nc2c(-c3ccccn3)cnc3[nH]ccc23)C1" on Non-receptor tyrosine-protein kinase TYK2 (Homo sapiens, UniProt P29597): IC50 was 0.01 to 0.1 µM

The molecule "CC[C@H](Cn1ccc2cnc(Nc3cnn(CC(=O)OC4COC4)c3)nc21)C(C)C" on Non-receptor tyrosine-protein kinase TYK2 (Homo sapiens, UniProt P29597): IC50 was < 0.1 µM

The molecule "Cc1ncc(F)cc1[C@H]1CCCN1c1ccn2ncc(C(=O)N[C@H]3CC[C@H](O)CC3)c2n1" on Non-receptor tyrosine-protein kinase TYK2 (Homo sapiens, UniProt P29597): IC50 was > 1 µM

Turning now to a further molecule:
The molecule "O=C1Nc2ccc(cc2)OCc2cc(ccc2F)Nc2nccc(n2)-c2ccc1cc2O" on Non-receptor tyrosine-protein kinase TYK2 (Homo sapiens, UniProt P29597): IC50 was 1 to 10 µM
